Form: system (human PRMT1 (Homo sapiens)), quantity (IC50), values below.

molecule	IC50
CNCCN(C)Cc1cccc(-c2cncc(C(=O)NCc3c(C)cc(C)[nH]c3=O)c2)c1	101 nM
CNCCN(C)Cc1cccc(-c2cc(C(=O)N(C)Cc3ccccc3)c3cnn(C(C)C)c3n2)c1	97.4 nM
CNCCN(C)Cc1cccc(-c2cc(NC(=O)NC(C)C)c3cnn(C(C)C)c3n2)c1	391 nM

====

Tested on: asymmetric di-methyl PABP1 in RKO cells
Assay: In Cell Western (ICW) for asymmetric di-methyl PABP1 and DNA content in RKO cells
Format: cell-based
Conditions: Homo sapiens, RKO, In Cell Western

compound	IC50 (µM)
CNCCN(C)Cc1cccc(-c2cc(NS(C)(=O)=O)c3cnn(C(C)C)c3n2)c1 [Compound 169]	13.3
CNCCN(C)Cc1cccc(-c2cc(C(=O)NCc3cccc(F)c3)c3cnn(C(C)C)c3n2)c1 [Compound 259]	20
CNCCN(C)Cc1cccc(-c2cc(C(=O)N3Cc4cccnc4C3)c3cnn(C(C)C)c3n2)c1 [Compound 301]	15.5
CCN(C)C(=O)c1cc(-c2cccc(CN(C)CCN)c2)nc2c1cnn2C(C)C [Compound 230]	7.63

====

pIC50: −log10 of the molar value.
Form: system (human PRMT1 (Homo sapiens, UniProt Q99873)), quantity (pIC50), values below.

molecule	testedTarget	pIC50
CNCCN(C)Cc1cccc(-c2cnc3c(c2)c(Br)nn3CC2CCOCC2)c1	human PRMT1 (Homo sapiens, UniProt Q99873)	6.78
CNCCN(C)Cc1cccc(-c2ccc3c(c2)ncn3C(C)C)c1	human PRMT1 (Homo sapiens, UniProt Q99873)	6.81
NCCNCc1ccc(-c2ccc3ncn(Cc4ccc(C(=O)N5CCCC5)cc4)c3c2)cc1	human PRMT1 (Homo sapiens, UniProt Q99873)	6.28
CC(C)n1ncc2c(C(=O)N[C@@H](C)c3ccccc3)cc(-c3cccc(CNCCN)c3)nc21	human PRMT1 (Homo sapiens, UniProt Q99873)	5.39
CC(C)n1ncc2c(NC3CC3)cc(-c3cccc(CN(C)CCN)c3)nc21	human PRMT1 (Homo sapiens, UniProt Q99873)	6.76
Cc1ccccc1Cn1cnc2ccc(-c3ccc(CNCCN)cc3)cc21	human PRMT1 (Homo sapiens, UniProt Q99873)	6.43
CNCCN(C)Cc1cccc(-c2cc(NC3COC3)c3cnn(C(C)C)c3n2)c1	human PRMT1 (Homo sapiens, UniProt Q99873)	6.62
CCS(=O)(=O)Nc1cc(-c2cccc(CN(C)CCNC)c2)nc2c1cnn2C(C)C	human PRMT1 (Homo sapiens, UniProt Q99873)	5.38
Cc1cccc(CCn2cnc3ccc(-c4ccc(CNCCN)cc4)cc32)c1	human PRMT1 (Homo sapiens, UniProt Q99873)	5.95
CNCCN(C)Cc1cccc(-c2ccc3ncn(C(C)C)c3c2)c1	human PRMT1 (Homo sapiens, UniProt Q99873)	6.94
CNCCN(C)Cc1cccc(-c2nc(NC3CC3)c3cnn(C4CC4)c3n2)c1	human PRMT1 (Homo sapiens, UniProt Q99873)	6.21
CNCCN(C)Cc1cccc(-c2cc(C(=O)NCc3c(C)cc(C)[nH]c3=O)c3cnn(C(C)C)c3c2)c1	human PRMT1 (Homo sapiens, UniProt Q99873)	6.74
CNCCN(C)Cc1cccc(-c2cc(C#N)c3cnn(C(C)C)c3n2)c1	human PRMT1 (Homo sapiens, UniProt Q99873)	6.51

====

System: asymmetric di-methyl PABP1 in RKO cells
Assay: In Cell Western (ICW) for asymmetric di-methyl PABP1 and DNA content in RKO cells
Type: cell-based
Conditions: Homo sapiens, RKO, In Cell Western
Method: RKO adherent cells were purchased from ATCC (American Type Culture Collection), Manassas, Va., USA. […] Calculations: First, the ratio for each well was determined by: Each plate included fourteen control wells of DMSO only treatment (minimum inhibition) as well as fourteen control wells for maximum inhibition treated with 20 μM of a reference compound. The average of the ratio values for each control type was calculated and used to determine the percent activation for each test well in the plate. […]
pIC50: −log10 of the molar value.
Entry flag: MET if pIC50 reaches 5; NOT MET if it does not.

compound	className
CNCCN(C)Cc1cccc(-c2cc(C(=O)N(C)Cc3ccccn3)c3cnn(C(C)C)c3n2)c1	MET
CNCCN(C)Cc1cccc(-c2cc(C(=O)NC3CCOCC3)c3cnn(C4CCC4)c3n2)c1	MET
CNCCN(C)Cc1cccc(-c2cc(CO)c3cnn(C(C)C)c3n2)c1	NOT MET
CC(C)n1ncc2c(C(=O)N3CCC(F)(F)C3)cc(-c3cccc(CN(C)CCN)c3)nc21	NOT MET
CNCCN(C)Cc1cccc(-c2cc(C(=O)NC3CCOCC3)c3cnn(C)c3n2)c1	NOT MET
CNCCN(C)Cc1cccc(-c2cc(C(=O)NC3CCOC3)c3cnn(C(C)C)c3n2)c1 (stereo not drawn)	MET
CNCCN(C)Cc1cccc(-c2cc(-c3ccc(O)cc3)c3cnn(C(C)C)c3n2)c1	NOT MET
CNCCN(C)Cc1cccc(-c2ccc3cn(Cc4ccccc4)nc3n2)c1	MET
CC(C)n1ncc2c(C(=O)NCc3ccccc3Cl)cc(-c3cccc(CN(C)CCN)c3)nc21	NOT MET
CC(C)n1ncc2c(C(=O)NCc3ccccc3)cc(-c3cccc(CN(C)CCN)c3)cc21	NOT MET
CC(C)n1ncc2c(C(=O)NCc3cccnc3)cc(-c3cccc(CN(C)CCN)c3)nc21	MET
CNCCN(C)Cc1cccc(-c2cc(C(=O)NCC3CCOCC3)c3cnn(C)c3n2)c1	NOT MET
CCCc1cc(-c2cccc(CN(C)CCNC)c2)nc2c1cnn2C(C)C	NOT MET
CC(C)n1ncc2c(C(=O)NCc3nccn3C)cc(-c3cccc(CN(C)CCN)c3)nc21	MET
CC(C)n1ncc2c(NC(=O)N(C)C)cc(-c3cccc(CN(C)CCN)c3)nc21	MET
CNCCN(C)Cc1cccc(-c2cc(C(=O)NCc3ccccc3F)c3cnn(C(C)C)c3n2)c1	MET

====

pIC50: −log10 of the molar value.
Form: system (human PRMT1 (Homo sapiens, UniProt Q99873)), quantity (pIC50), values below.

molecule	pIC50
CC(C)n1ncc2c(N3CCOCC3)cc(-c3cccc(CN(C)CCN)c3)nc21	6.60
CNCCN(C)Cc1cccc(-c2cc(-c3ccoc3)c3cnn(C(C)C)c3n2)c1	6.56
CNCCN(C)Cc1ccc(-c2cncc(C(=O)NCc3c(C)cc(C)[nH]c3=O)c2)cc1	7.19
Cc1cc(C)c(CNC(=O)c2cncc(-c3ccc(CN(C)CCN)cc3)c2)c(=O)[nH]1	7.14

====

Form: system (UniProtKB Q99873), quantity (IC50), values below.
observationType: IC50

molecule	observationType	resultValue
Cc1cc(C)c(CNC(=O)c2cc(-c3cccc(CN(C)CCN(C)C)c3)nc3c2cnn3C(C)C)c(=O)[nH]1	IC50	4270 nM
CNCCN(C)Cc1cccc(-c2cc(N)c3cnn(C(C)C)c3n2)c1	IC50	1660 nM
CNCCN(C)Cc1cccc(-c2cc(C(=O)NCc3ccccc3F)c3cnn(C(C)C)c3n2)c1	IC50	159 nM

====

Form: system (Human CARM1 (PRMT4) (Homo sapiens)), quantity (IC50), values below.

compound	testedTarget	quantityUnit	IC50
CNCCN(C)Cc1cccc(-c2cc(-c3ccncc3)c3cnn(C(C)C)c3n2)c1 [Compound 196]	Human CARM1 (PRMT4) (Homo sapiens)	nM	14.3
CC(C)n1ncc2c(C(=O)NCC3CCOCC3)cc(-c3cccc(CN(C)CCNC4CC4)c3)nc21 [Compound 167]	Human CARM1 (PRMT4) (Homo sapiens)	nM	98.2
CC(C)n1ncc2c(C(=O)NCc3cn(C)cn3)cc(-c3cccc(CN(C)CCN)c3)nc21 [Compound 262]	Human CARM1 (PRMT4) (Homo sapiens)	nM	70.2
CNCCN(C)Cc1cccc(-c2cc(C(=O)N3CCC3)c3cnn(C(C)C)c3n2)c1 [Compound 252]	Human CARM1 (PRMT4) (Homo sapiens)	nM	59.3
CN1CCCC(Cn2cnc3ccc(-c4ccc(CNCCN)cc4)cc32)C1 (stereo not drawn) [Compound 338]	Human CARM1 (PRMT4) (Homo sapiens)	nM	5530
CC(C)n1ncc2c(C(=O)N(C)Cc3cccc(Cl)c3)cc(-c3cccc(CN(C)CCN)c3)nc21 [Compound 266]	Human CARM1 (PRMT4) (Homo sapiens)	nM	74.9
CNCCN(C)Cc1cccc(-c2ccc3ncn(C)c3c2)c1 [Compound 92]	Human CARM1 (PRMT4) (Homo sapiens)	nM	6490
CC(C)n1ncc2c(NC3CC3)cc(-c3cccc(CN(C)CCN)c3)nc21 [Compound 41]	Human CARM1 (PRMT4) (Homo sapiens)	nM	13.4
CC(C)n1ncc2c(C(=O)N3CCC(F)C3)cc(-c3cccc(CN(C)CCN)c3)nc21 (stereo not drawn) [Compound 257]	Human CARM1 (PRMT4) (Homo sapiens)	nM	63.5
CN(CCN)Cc1cccc(-c2ccc(C(=O)NCC3CCOCC3)c(N(C)CC3CC3)c2)c1 [Compound 263]	Human CARM1 (PRMT4) (Homo sapiens)	nM	72.2
CNCCN(C)Cc1cccc(-c2cc(C(=O)N3CCSCC3)c3cnn(C(C)C)c3n2)c1 [Compound 322]	Human CARM1 (PRMT4) (Homo sapiens)	nM	456
CN(CCN)Cc1cccc(-c2cc(C(=O)NC3CCOCC3)c3cnn(C4CC4)c3n2)c1 [Compound 142]	Human CARM1 (PRMT4) (Homo sapiens)	nM	9.43
